Assay System: IRAK4 (Homo sapiens (Human))
Sequence (Q9NWZ3 whole entry, species assumed): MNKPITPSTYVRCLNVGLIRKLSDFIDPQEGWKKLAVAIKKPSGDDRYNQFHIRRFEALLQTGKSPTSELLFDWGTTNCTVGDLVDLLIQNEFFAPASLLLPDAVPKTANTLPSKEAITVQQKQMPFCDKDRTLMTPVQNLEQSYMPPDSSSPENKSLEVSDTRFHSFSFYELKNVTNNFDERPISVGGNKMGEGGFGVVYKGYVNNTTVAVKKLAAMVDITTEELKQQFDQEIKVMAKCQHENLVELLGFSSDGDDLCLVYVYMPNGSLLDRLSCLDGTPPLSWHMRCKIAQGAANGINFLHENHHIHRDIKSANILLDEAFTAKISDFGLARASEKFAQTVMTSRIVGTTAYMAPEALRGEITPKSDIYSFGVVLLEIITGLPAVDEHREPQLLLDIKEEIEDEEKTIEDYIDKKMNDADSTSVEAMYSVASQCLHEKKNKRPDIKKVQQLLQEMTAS
pIC50: −log10 of the molar value.
Attribute Measured: pIC50

A selection of reference data follows.
CC(C)(O)[C@H](F)CNC(=O)c1cnc(Nc2ccc3ncsc3c2)cc1NC12CCC(NC(=O)c3ccccn3)(CC1)C2 [Example 400]: 8.12
CC(=O)N[C@H]1CC[C@H](NC(=O)c2cnc(Nc3nc4ccnn4cc3F)cc2NC(C)C)CC1 [Example 512]: 7.76
CC(C)(O)[C@H](F)CNC(=O)c1cnc(Nc2nc3ccnn3cc2F)cc1NC1CCCOC1 (stereo partly shown) [Example 422]: 7.95

I: CCC(O)(CC)[C@H](F)CNC(=O)c1cnc(Nc2ccn3nccc3n2)cc1NCC(C)(C)F [Example 389]
II: CC(C)(O)[C@H](F)CNC(=O)c1cnc(Nc2ccn3nccc3n2)cc1NC1CCCC1F (stereo partly shown) [Example 245]
III: CCOC(=O)c1cn2c(n1)sc1cc(Nc3cc(NC4CCCC4)c(C(=O)NC)cn3)ccc12 [Example 3]
IV: O=C(NCCC1(O)CCC1)c1cnc(Nc2ccc3ncsc3c2)cc1NC1CC1 [Example 10]
Order the records, beginning with the lowest pIC50 and ending with the highest. Answer format: list of labels, ordered as asked.
III, I, IV, II

###

Tested on: TLR2 induced IL-6 in peripheral blood mononuclear cells (PBMCs)
Assay Procedure: PBMC TLR2 Induced IL-6 Assay
Format: cell-based, human
Condition Context: Homo sapiens, PBMC, 5 h, human PBMCs, 10 μg/ml lipoteichoic acid for 5 hours, IL-6 by ELISA; value without asterisk; read-out: Cell IC50
Let's look at some compounds and their measured IC50.
Kindly provide the numeric value in nM only, without the unit symbol.

CNC(=O)c1ccc(Nc2cc(Nc3ccc4ncsc4c3)ncc2C(=O)NC[C@@H](F)C(C)(C)O)cc1 [Example 319]: 315
CC(C)(O)[C@H](F)CNC(=O)c1cnc(Nc2ccc3ncsc3c2)cc1Nc1ccc(C(N)=O)cc1 [Example 320]: 270
CC(C)(O)[C@H](F)CNC(=O)c1cnc(Nc2ccc3ncsc3c2)cc1N[C@@H](c1cccc(F)c1)[C@H](O)CO [Example 44]: 699

Item CC(C)(O)[C@H](F)CNC(=O)c1cnc(Nc2ccc3ncsc3c2)cc1NCC1CC1 [Example 62] was tested on TLR2 induced IL-6 in peripheral blood mononuclear cells (PBMCs); the reported IC50 is 288

Kindly note: TLR2 induced IL-6 in peripheral blood mononuclear cells (PBMCs), CC(C)(F)CNc1cc(Nc2ccc3ncccc3n2)ncc1C(=O)NC[C@@H](F)C(C)(C)O [Example 134] , IC50 value reported: 447

Sample CC(C)(O)[C@H](F)CNC(=O)c1cnc(Nc2ccc3ncsc3c2)cc1N[C@H]1CC[C@H](N)CC1 [Example 61] , system: TLR2 induced IL-6 in peripheral blood mononuclear cells (PBMCs). Its IC50 is 257

###

Tested on: TLR2 induced IL-6 in peripheral blood mononuclear cells (PBMCs)
Assay Procedure: PBMC TLR2 Induced IL-6 Assay
Type: cell-based, human
Condition Context: Homo sapiens, PBMC, 5 h, human PBMCs, 10 μg/ml lipoteichoic acid for 5 hours, IL-6 by ELISA; value without asterisk; read-out: Cell IC50
Attribute Measured: IC50 (nM)
Report as a plain number; the unit nM is understood.

In the examples that follow, each entry is paired with its recorded IC50.
CC(C)(O)[C@H](F)CNC(=O)c1cnc(Nc2ccc3ncsc3c2)cc1NC12CCC(NS(C)(=O)=O)(CC1)C2: 351
CCNc1cc(Nc2ccn3nccc3n2)ncc1C(=O)NC[C@@H](F)C(C)(C)O: 379
CCC(C)Nc1cc(Nc2ccc3ncsc3c2)ncc1C(=O)NC[C@@H](F)C(C)(C)O (stereo partly drawn): 528

The molecule listed as `CCC(O)(CC)[C@H](F)CNC(=O)c1cnc(Nc2cc3scnc3cn2)cc1NC1CC1` has a reported IC50 of 1480

The recorded IC50 for entry `CC(C)Nc1cc(Nc2ccc3ncsc3c2)ncc1C(=O)N[C@H]1CC[C@H](C(N)=O)CC1` equals 392

Measured IC50 of `CN(C)C(=O)c1ccc(Nc2cc(Nc3ccc4ncsc4c3)ncc2C(=O)NC[C@@H](F)C(C)(C)O)cc1` : 207

# molecule `CC(C)Nc1cc(Nc2nc3scnc3cc2F)ncc1C(=O)NCC(F)(F)C(C)(C)O` ; its IC50 = 463

// IC50 value for `CC(C)Nc1cc(Nc2ccc3nsnc3c2)ncc1C(=O)NC[C@@H](F)C(C)(C)O` : 318

Summary for this molecule, `CC(C)Nc1cc(Nc2ccc3ncccc3c2)ncc1C(=O)NC[C@@H](F)C(C)(C)O` : IC50 is 571

Lab note: `CC(C)Nc1cc(Nc2ccc3ncsc3c2)ncc1C(=O)NC12CCC(N)(CC1)CC2` gave IC50 of 238

Field IC50 (entry `CC(C)(F)CNc1cc(Nc2cc3scnc3cn2)ncc1C(=O)NC[C@@H](F)C(C)(C)O` ) reads 429

So, `CC(C)(O)[C@H](F)CNC(=O)c1cnc(Nc2ccn3ncc(F)c3c2)cc1NC1CC(F)(F)C1` ? Its IC50 was 184

###

Test system: TLR2 induced IL-6 in peripheral blood mononuclear cells (PBMCs)
Assay Procedure: PBMC TLR2 Induced IL-6 Assay
Format: cell-based, human
Condition Context: Homo sapiens, PBMC, 5 h, human PBMCs, 10 μg/ml lipoteichoic acid for 5 hours, IL-6 by ELISA; EC50 determinations are indicated with an asterisk; read-out: Cell EC50 (asterisk)
Listed here are compounds together with their documented EC50.
# value in nM; strip the unit string

Please review the entries below; each comes with its answer.
CC(C)(O)[C@H](F)CNC(=O)c1cnc(Nc2cc3nccnc3cc2F)cc1NC1CCC1: 228
CC(C)Nc1cc(Nc2ccc3ncsc3c2)ncc1C(=O)NC1CCC(O)(c2ccnn2C)CC1 (stereo not shown): 75
CC(C)(O)C1CCC(NC(=O)c2cnc(Nc3ccc4ncsc4c3)cc2NC2CCCOC2)CC1 (stereo not shown): 277
CC(C)(O)C(F)(F)CNC(=O)c1cnc(Nc2nc3scnc3cc2F)cc1NC1CC1: 365
CCNc1cc(Nc2nc3ccnn3cc2F)ncc1C(=O)NC1CCC(C(C)(C)O)CC1 (stereo not shown): 454
CC(C)(F)CNc1cc(Nc2ncc3ncsc3c2F)ncc1C(=O)NC1CCC(C(C)(C)O)CC1 (stereo not shown): 374

Pending compound:
Reported EC50 (TLR2 induced IL-6 in peripheral blood mononuclear cells (PBMCs)) for entry `CC(C)(O)[C@H](F)CNC(=O)c1cnc(Nc2ncc3ccc(F)cc3n2)cc1NC1CCOCC1` is 447

###

Test system: TLR2 induced IL-6 in peripheral blood mononuclear cells (PBMCs)
Assay Procedure: PBMC TLR2 Induced IL-6 Assay
Assay type: cell-based, human
Condition Context: Homo sapiens, PBMC, 5 h, human PBMCs, 10 μg/ml lipoteichoic acid for 5 hours, IL-6 by ELISA; value without asterisk; read-out: Cell IC50
Measured pIC50, listed per entry for reference.
pIC50 is defined as minus the log10 of a concentration measured in mol/L.

Below, each entry is followed by its recorded pIC50 result.
CC(=O)N[C@H]1CC[C@@H](NC(=O)c2cnc(Nc3ccc4ncsc4c3)cc2NC(C)C)CC1 [Example 216]: 6.22
CC(C)Nc1cc(Nc2ccc3ncoc3c2)ncc1C(=O)NC[C@@H](F)C(C)(C)O [Example 130]: 6.64
CC(C)Nc1cc(Nc2ccc3ncoc3c2)ncc1C(=O)NC[C@@H](F)C(O)C(C)C (stereo partly shown) [Example 24]: 6.33
CCOC(=O)C1CC(Nc2cc(Nc3ccc4ncsc4c3)ncc2C(=O)NC[C@@H](F)C(C)(C)O)C1 (stereo partly shown) [Example 70]: 6.28
CC(C)Nc1cc(Nc2ccc3ncncc3c2)ncc1C(=O)NC[C@@H](F)C(C)(C)O [Example 48]: 6.29
CC(C)(O)[C@H](F)CNC(=O)c1cnc(Nc2ccn3ncc(F)c3n2)cc1NC1CC1 [Example 251]: 6.43
CC(C)Nc1cc(Nc2ccn3nccc3n2)ncc1C(=O)NC12CCC(N)(CC1)CC2 [Example 318]: 6.56
CC(C)Nc1cc(Nc2ccc3ncsc3c2)ncc1C(=O)NCCN1CCOCC1 [Example 402]: 6.45

Item CNC(=O)[C@H]1CC[C@H](NC(=O)c2cnc(Nc3cnc4[nH]ccc4c3)cc2NC(C)C)CC1 [Example 507] was tested on TLR2 induced IL-6 in peripheral blood mononuclear cells (PBMCs); the reported pIC50 is 6.28

pIC50 value, target or system TLR2 induced IL-6 in peripheral blood mononuclear cells (PBMCs), for CC(C)Nc1cc(Nc2ccc3ncsc3c2)ncc1C(=O)NC1CCN(C(=O)c2cccnc2)CC1 [Example 219] : 6.35

###

Assay System: IRAK4 (Homo sapiens (Human))
Attribute Measured: IC50 (nM)

Cc1cc2nc(Nc3cc(NC(C)C)c(C(=O)NC[C@@H](F)C(C)(C)O)cn3)ccn2n1 [Example 379]: 6.3

A: CC(CO)Nc1cc(Nc2ccc3ncsc3c2)ncc1C(=O)NC[C@@H](F)C(C)(C)O (stereo partly drawn) [Example 39]
B: CC(C)Nc1cc(Nc2ccc3ncsc3c2)ncc1C(=O)N[C@H]1CC[C@H](C(=O)NC2(C#N)CC2)CC1 [Example 213]
C: CC(C)(F)CNc1cc(Nc2ccc3ncccc3n2)ncc1C(=O)NC[C@@H](F)C(C)(C)O [Example 134]
D: CC(C)(O)[C@H](F)CNC(=O)c1cnc(Nc2ccc3ncsc3c2)cc1NCCN1CCOCC1 [Example 164]
Order the records by IC50, with each subsequent value no larger than the one before. Form entry: labels listed in requested order.
D, C, A, B
(D: 34.9 nM, C: 8.8 nM, A: 5.3 nM, B: 3.1 nM)

a: CC(C)(O)[C@H](F)CNC(=O)c1cnc(Nc2ccc3ncsc3c2)cc1NC12CCC(N)(CC1)C2 [Example 140]
b: O=C(NC1CCC(O)CC1)c1cnc(Nc2ccc3nccn3n2)cc1NC1CCC1 (stereo not drawn) [Example 282]
c: CC(C)CNc1cc(Nc2ccn3nccc3c2)ncc1C(=O)NC[C@@H](F)C(C)(C)O [Example 289]
Rank the 3 molecules: largest IC50 first, smallest last. Kindly provide the labels arranged according to the requested ordering.
b, c, a

A: CC1CCCC1Nc1cc(Nc2ccc3ncsc3c2)ncc1C(=O)NC[C@@H](F)C(C)(C)O (stereo partly drawn) [Example 104]
B: CC(C)Nc1cc(Nc2ccc3ncsc3c2)ncc1C(=O)NC1CCC(=O)CC1 [Example 526]
Min IC50? A | B Bench note: the answer is the label of the chosen record.
A
